Below, each of the compounds is paired with its reported isobaric coefficient of expansion value.
PROCEDURE_SUMMARY: isobaric coefficient of expansion
RUN_PARAMETERS: 308.15 K; 50000 kPa; Liquid; DSC

[
  {
    "SMI": "CCCCCCCCCCCC",
    "isobaric coefficient of expansion": "0.000755 1/K"
  },
  {
    "SMI": "c1ccccc1",
    "isobaric coefficient of expansion": "0.000972 1/K"
  },
  {
    "SMI": "CCCCCCCCCCC",
    "isobaric coefficient of expansion": "0.000774 1/K"
  },
  {
    "SMI": "CCCCCCCCCCCCCC",
    "isobaric coefficient of expansion": "0.00073 1/K"
  },
  {
    "SMI": "CCCCCCCCCC",
    "isobaric coefficient of expansion": "0.000796 1/K"
  },
  {
    "SMI": "CCCCCCCCCCCCCCC",
    "isobaric coefficient of expansion": "0.000721 1/K"
  },
  {
    "SMI": "CCCCCCCCCCCCC",
    "isobaric coefficient of expansion": "0.000735 1/K"
  },
  {
    "SMI": "CCCCCCCCC",
    "isobaric coefficient of expansion": "0.00082 1/K"
  },
  {
    "SMI": "ClC(Cl)(Cl)Cl",
    "isobaric coefficient of expansion": "0.000959 1/K"
  }
]
